Tested on: HCT-116 colon
Experiment: NCI tumour cell line growth inhibition, 48 h
So I've got a bunch of molecules here, and I need their TGI values.

TGI reported for this molecule COC(=O)C(=O)C(C(=O)C=C(C)C)C(=O)C(=O)Nc1ccc(Cl)cc1C (centres undefined) : > 100 µM

TGI reported for this molecule O=C(NC1CCCCCC1)C1C(=O)N(C2CCCCCC2)C(=O)/C1=N\O (centres undefined) : 31.8 µM

TGI reported for this molecule CCOC(=O)NC(=O)c1cn(CCCOC(=O)NCCCCCCNC(=O)OCCCn2c(=O)c(C(=O)NC(=O)OCC)cn(C)c2=O)c(=O)n(C)c1=O : > 100 µM

TGI reported for this molecule CCOC(=O)c1c(C)n(Cc2ccc(OC)cc2)c2c1cc(O)c1[nH]c3c(c12)CCCC3 : 12.1 µM

TGI reported for this molecule S=C1Cc2c([nH]c3ccccc23)-c2ccccc2N1 : > 100 µM

TGI reported for this molecule Nc1nccc(-c2c(-c3ccc(F)cc3)ncn2CCCN2CCOCC2)n1 : > 25 µM

TGI reported for this molecule CCCN=C(NC(=O)c1ccc(Cl)cc1)SC : > 100 µM

TGI reported for this molecule COc1ccc2c(c1)CCCc1cn[nH]c1-2 : > 100 µM

TGI reported for this molecule COc1ccc(-c2nc(-c3nc4ccc(C)cc4[nH]3)c3ccccn23)cc1 : 9.46 µM

TGI reported for this molecule CC(=O)OC[C@H]1[C@@H]2C(CC[C@]13CO3)OC(=O)CC(C)[C@]2(C)CCc1ccoc1 (some centres undefined) : > 100 µM

TGI reported for this molecule N#CCCN(CCC#N)c1ccc(C(=O)NN)cc1 : > 100 µM

TGI reported for this molecule N#CCCN(c1ccc(/C=C2\N=C(c3ccc(Cl)cc3)OC2=O)cc1)S(=O)(=O)c1ccccc1 : > 100 µM

TGI reported for this molecule COC(=O)C1=C(c2ccc3c(c2)OCO3)O[C@H](c2ccc3c(c2)OCO3)[C@H]1COC(C)=O : > 100 µM

TGI reported for this molecule O=C(CC(=O)N1N=C(c2ccccc2)C(N=Nc2ccc(Cl)cc2)C1=O)Nc1ccccc1Cl (centres undefined) : > 100 µM

TGI reported for this molecule O=P(O)(O)CN1CCN(CP(=O)(O)O)CCN(CP(=O)(O)O)CCN(CP(=O)(O)O)CC1 : > 100 µM

TGI reported for this molecule CCCCCCCCCCCCCCCCCc1cccc(OCOCCOC)c1CO : > 100 µM

TGI reported for this molecule COc1ccc(C(=O)/C=C/c2cccnc2Nc2cc(OC)c(OC)c(OC)c2)cc1 : 2.1 µM

TGI reported for this molecule COc1ccc(C2CC(=O)c3c(O)c(OC)c(OC)c(OC)c3O2)c(O)c1 (centres undefined) : 60.9 µM

TGI reported for this molecule CC(C)(C)OC(=O)N(CCCN(CCn1c2c(c3ccccc3c1=O)C(=O)c1ccccc1-2)C(=O)OC(C)(C)C)CCn1c2c(c3ccccc3c1=O)C(=O)c1ccccc1-2 : > 50 µM

====

Tested on: OVCAR-3 ovarian
Assay: NCI tumour cell line growth inhibition, 48 h
So I've got a bunch of compounds here, and I need their TGI values.

TGI reported for this compound O=C(Nc1ccc2nc(-c3ccccc3)cn2c1)Oc1ccccc1 : > 100 µM

TGI reported for this compound CCc1cccc(C)c1NC(C)=O : > 100 µM

TGI reported for this compound COc1ccc(-n2c(SCc3cc(OC)c(OC)c(OC)c3)nc3ccc(C)cc3c2=O)cc1 : > 100 µM

TGI reported for this compound CCOC(=O)c1c(C)n(Cc2ccc(OC)cc2)c2c1cc(O)c1[nH]c3c(c12)CCCC3 : 18.6 µM

TGI reported for this compound Cc1ccc(C(=O)/C=C/c2ccccc2O)c(C)c1 : > 100 µM

TGI reported for this compound CCC1c2[nH]c3ccccc3c2C[C@H]2C(=O)NC(CCC(=O)OC(C)(C)C)C(=O)N12 (stereo partly specified) : > 100 µM

TGI reported for this compound CC(=O)SCCC1c2[nH]c3ccccc3c2CCN1O (stereo unspecified) : > 100 µM

TGI reported for this compound Nc1nccc(-c2c(-c3ccc(F)cc3)ncn2CCCN2CCOCC2)n1 : > 25 µM

TGI reported for this compound O=C(CSc1nnc(Cc2ccccc2)o1)Nc1cccc([N+](=O)[O-])c1 : > 100 µM

TGI reported for this compound c1ccc2c(c1)nc1n2CNCC1 : > 100 µM

TGI reported for this compound CSc1nc(NC2OC(COC(C)=O)C(OC(C)=O)C(OC(C)=O)C2OC(C)=O)c2c(OC(C)=O)c(C)c(=O)oc2n1 (stereo unspecified) : > 100 µM

====

System: PC-3 prostate
Test: NCI tumour cell line growth inhibition, 48 h
readout-kind: TGI

TGI reported for this molecule N#Cc1nc(COCCOCc2ccccc2)oc1N : > 100 µM

TGI reported for this molecule CCCCC/C=C/C/C=C/CCCCCCCC1=NC(C)(C)CN1C(C)C : 3.41 µM

TGI reported for this molecule Brc1ccc2c(-c3nc(-c4c[nH]c5ccc(Br)cc45)cs3)c[nH]c2c1 : 17.9 µM

TGI reported for this molecule Cn1cc(C2=C(c3cn(C)c4c(N)cccc34)C(=O)NC2=O)c2ccccc21 : > 25 µM

TGI reported for this molecule COC12C=CC(CC1)C(C)(C)C2=O (stereo not drawn) : > 100 µM

TGI reported for this molecule Cc1cc(O)c(/C=N/C(=S)NCCc2ccccc2)c(=O)o1 : > 100 µM

TGI reported for this molecule Cc1[nH]c(=O)[nH]c(=S)c1C(=O)NC(C)(CO)CO : > 100 µM

TGI reported for this molecule O=C(c1ccc(Cl)cc1Cl)N(C(=O)N1CCCCC1)c1ccccc1 : > 100 µM

====

System: ACHN renal
Assay: NCI tumour cell line growth inhibition, 48 h
So I've got a bunch of compounds here, and I need their TGI values.

TGI reported for this compound Cc1nnc([C@@]2(C)CC[C@H]3[C@@H](CC=C4C[C@@H](O)CC[C@@]43C)[C@@H]2CC#N)o1 : > 100 µM

TGI reported for this compound N#CCCN(c1ccc(/C=C2\N=C(c3ccc(Cl)cc3)OC2=O)cc1)S(=O)(=O)c1ccccc1 : > 100 µM

TGI reported for this compound CC(=O)c1ccc(NC(=O)/C(Cc2ccccn2)=N/NC(=O)C[N+](C)(C)C)cc1 : > 100 µM

TGI reported for this compound CCc1cccc(C)c1NC(C)=O : > 100 µM

TGI reported for this compound Nc1nc(Cl)cc(NCC2(CO)COC2)n1 : > 100 µM

TGI reported for this compound O=C(CSc1nnc(Cc2ccccc2)o1)Nc1cccc([N+](=O)[O-])c1 : > 100 µM

TGI reported for this compound O=C(C[C@@H](C(=O)NCc1cccc(C(F)(F)F)c1)N1C(=O)[C@@H](N2C(=O)OC[C@@H]2c2ccccc2)[C@H]1/C=C/c1ccccc1)NC1CCN(Cc2ccccc2)CC1 : > 100 µM

TGI reported for this compound CCCCn1c(-c2ccc(C(=O)O/N=C(\N)c3ccc(OC)cc3)cc2)nc(-c2ccccc2)c1-c1ccccc1 : 1.85 µM

TGI reported for this compound O=[N+]([O-])c1ccc2nnnn2c1 : > 100 µM

TGI reported for this compound Cc1ccc(NC(=O)C2C(=O)N(c3ccc(C)c(C)c3)C(=O)/C2=N/O)cc1C (stereo unspecified) : > 100 µM

TGI reported for this compound CCCCn1c(C)c(C(=O)OCC)c2cc(OCc3ccc(C(=O)Nn4c(C)ccc4C)cc3)c(Br)cc21 : > 100 µM

TGI reported for this compound CC(=O)OC[C@H]1[C@@H]2C(CC[C@]13CO3)OC(=O)CC(C)[C@]2(C)CCc1ccoc1 (stereo partly specified) : > 100 µM

TGI reported for this compound Cn1cc(C2=C(c3cn(CCCN=C(N)N)c4ccccc34)C(=O)NC2=O)c2ccccc21 : > 25 µM

TGI reported for this compound CNC1C(=O)C(C)C(O)(C(CC(C)C(O)/C=C/C=C/CNC(=O)C(C)(C)C(O)\C(C)=C/C=C\C=C\Cc2cnc(C)o2)OC)C12C(=O)OC2COC (stereo unspecified) (tested in a mixture with another compound) : > 43.2 µM

TGI reported for this compound Cn1cc(C2=C(c3cn(C)c4c(N)cccc34)C(=O)NC2=O)c2ccccc21 : > 23.9 µM

TGI reported for this compound NS(=O)(=O)c1nnc(NC(=O)c2ccccc2)s1 : > 100 µM

TGI reported for this compound NC(N)=NC(N)=Nc1cc2ccccc2c2ccccc12 : 17.3 µM

TGI reported for this compound COC(=O)C(=O)C(C(=O)C=C(C)C)C(=O)C(=O)Nc1ccc(Cl)cc1C (stereo unspecified) : > 100 µM

TGI reported for this compound Cc1cccc2c(N)c3cccc(C(=O)NCCCNCCN)c3nc12 : 32.8 µM

TGI reported for this compound O=P(c1ccccc1)(c1ccccc1)C(NCc1ccccc1)c1ccc(F)cc1 (stereo unspecified) : 27.5 µM

TGI reported for this compound CCOC(=O)Cn1sc2ncc([N+](=O)[O-])cc2c1=O : 29.5 µM

TGI reported for this compound CCOC(=O)NC(Nc1ccc(S(=O)(=O)Nc2ncccn2)cc1)(C(=O)OCC)C(F)(F)F (stereo unspecified) : > 100 µM

TGI reported for this compound COc1ccc2cc(C(=O)/C=C/c3cccc(OC)c3OC)ccc2c1 : 22.2 µM

TGI reported for this compound COC(=O)C1=C(c2ccc3c(c2)OCO3)O[C@H](c2ccc3c(c2)OCO3)[C@H]1COC(C)=O : > 100 µM

TGI reported for this compound CC(=O)NCc1nc(C#N)c(N)o1 : > 100 µM

TGI reported for this compound COC(=O)C(=O)C(C(=O)C(=O)Nc1ccc(C)cc1C)c1nc2ccccc2[nH]c1=O (stereo unspecified) : > 100 µM

TGI reported for this compound COc1ccc(OC)c2c1C(=O)C(Cl)=C(N1CCN(CCOCCO)CC1)C2=O : 30.3 µM

TGI reported for this compound O=C(O)C1C(C(=O)O)C(C(=O)O)C1C(=O)O (stereo unspecified) : > 100 µM

TGI reported for this compound O=C1CCC(c2ccccc2)C(O)(C(=O)O)C1 (stereo unspecified) : > 100 µM

TGI reported for this compound COc1ccc(/C(=N/Nc2ccc([N+](=O)[O-])cc2)Sc2cc(Cl)c(C)cc2S(N)(=O)=O)cc1 : 17.5 µM

TGI reported for this compound CCOC(=O)C(Cl)(NC(=O)c1ccc(F)cc1)C(F)(F)F (stereo unspecified) : > 100 µM
